sequences and their reported binding signal
target: MaxL homodimer (Homo sapiens, UniProt P61244 1-160); experiment: universal protein-binding microarray (PBM); PBS-based mixture, 10 nM His-tagged protein dimer, 2% milk, 200 ng/uL BSA, 50 ng/uL salmon testes DNA, 0.02% TX-100; detection with Alexa 488 anti-His antibody;; high values mean tight binding; details: protein: recombinant; tags: C-terminal His-tag (pET21a); chain copies: 2; dsDNA, one strand shown;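 further: fluorescence intensity normalized to that of the highest-ranked 8-mer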
Sequence (P61244 whole entry): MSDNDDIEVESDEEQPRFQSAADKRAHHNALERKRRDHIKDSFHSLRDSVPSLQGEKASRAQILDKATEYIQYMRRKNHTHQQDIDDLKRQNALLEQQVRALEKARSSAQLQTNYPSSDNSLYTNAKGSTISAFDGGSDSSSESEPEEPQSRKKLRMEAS
Whole data set: some 33,000 sequences, median “normalized occupancy” near 0.075, cut for the highest 2% near 0.095. What follows is part of a selection rich in the highest values, with near analogues and random picks from the rest.
A number alone suffices; assume normalized occupancy.

AGTTCTAC    0.0751
CCACGCGG    0.32
TCACGCGA    0.11
CAGTAAAC    0.0746
CCACGAGG    0.182
AATTAAAT    0.0748
CAACGCGC    0.0787
GATCTTGC    0.0794

*Q* Requested read-out: binding signal. Entry: TCACGAAA
*A* 0.0755

*Q* Requested read-out: binding signal. Entry: TCACGAGA
*A* 0.0875

* * *

molecular target: MaxL homodimer (Homo sapiens, UniProt P61244 1-160); experiment: universal protein-binding microarray (PBM); PBS-based mixture, 10 nM His-tagged protein dimer, 2% milk, 200 ng/uL BSA, 50 ng/uL salmon testes DNA, 0.02% TX-100; detection with Alexa 488 anti-His antibody;; high values mean tight binding; settings: protein: recombinant; tags: C-terminal His-tag (pET21a); chain copies: 2; dsDNA, one strand shown;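 further: fluorescence intensity normalized to that of the highest-ranked 8-mer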
The full ranking holds about 33,000 sequences; the median of “normalized occupancy” is about 0.075, and the highest 2% start at about 0.095. For the sample, the highest values were picked, then their nearest neighbours and some sequences at random.
binding signal vs 0.08 normalized occupancy: at or above is true, below is false.

Worked examples, 6 sequences total:
CATGTGAG    true
AACTTGCC    false
CGTGCGTC    true
TACGCGGA    false
AACGCGGC    false
AATGCGTC    false

*Q* Check this sequence for binding signal at or above 0.08 normalized occupancy: CACGCGGG
*A* true

*Q* Check this sequence for binding signal at or above 0.08 normalized occupancy: CGAATAAA
*A* false

* * *

biological target: MaxL homodimer (Homo sapiens, UniProt P61244 1-160); experiment: universal protein-binding microarray (PBM); PBS-based mixture, 10 nM His-tagged protein dimer, 2% milk, 200 ng/uL BSA, 50 ng/uL salmon testes DNA, 0.02% TX-100; detection with Alexa 488 anti-His antibody;; high values mean tight binding; conditions: protein: recombinant; tags: C-terminal His-tag (pET21a); chain copies: 2; dsDNA, one strand shown;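 further: fluorescence intensity normalized to that of the highest-ranked 8-mer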
In all, about 33,000 sequences were measured (“normalized occupancy”: median about 0.075, highest 2% from about 0.095 on). Many of the other results were omitted from the sample, so the highest values are more common in it than they were.
readout: binding signal
State the result as a value with its unit after it.

A selection of reference data follows.
GTGCGTGA    0.0887 normalized occupancy
ATGCGTGG    0.106 normalized occupancy
ATGCGTGA    0.0965 normalized occupancy
AGGTGTGG    0.0847 normalized occupancy
CCACGCTC    0.0965 normalized occupancy
AAGTGTGG    0.0819 normalized occupancy
GATGACAA    0.0764 normalized occupancy
ACGTGTGG    0.104 normalized occupancy
ATGCGTCC    0.0782 normalized occupancy
CCACGCAC    0.0964 normalized occupancy

*Q* Requested read-out: binding signal. Entry: CTGCGTGA
*A* 0.0818 normalized occupancy

*Q* Requested read-out: binding signal. Entry: GTACGCTA
*A* 0.0796 normalized occupancy

*Q* Requested read-out: binding signal. Entry: AACATACC
*A* 0.086 normalized occupancy

*Q* Requested read-out: binding signal. Entry: CCGTGTGC
*A* 0.0858 normalized occupancy

*Q* Requested read-out: binding signal. Entry: ATGCGTGC
*A* 0.0969 normalized occupancy

*Q* Requested read-out: binding signal. Entry: AAGTGTGC
*A* 0.0869 normalized occupancy

*Q* Requested read-out: binding signal. Entry: CTGCGTGC
*A* 0.0861 normalized occupancy

* * *

molecular target: MaxL homodimer (Homo sapiens, UniProt P61244 1-160); test: universal protein-binding microarray (PBM); PBS-based mixture, 10 nM His-tagged protein dimer, 2% milk, 200 ng/uL BSA, 50 ng/uL salmon testes DNA, 0.02% TX-100; detection with Alexa 488 anti-His antibody;; high values mean tight binding; conditions: protein: recombinant; tags: C-terminal His-tag (pET21a); chain copies: 2; dsDNA, one strand shown;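 further: fluorescence intensity normalized to that of the highest-ranked 8-mer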
In all, about 33,000 sequences were measured (“normalized occupancy”: median about 0.075, highest 2% from about 0.095 on). This is one part of a sample in which the highest values are shown more often than they occur.
One threshold, 0.08 normalized occupancy, splits the recorded binding signal values: lower ones are 1 (yes), equal or higher ones are 0 (no).

AGCAGACA    1 (yes)
AATGCGCG    1 (yes)
CGTGCGCC    0 (no)
AAAACGAG    1 (yes)
CGTGCGCA    0 (no)
AGTGCGCC    1 (yes)
ATTGCGAA    1 (yes)
ATTTTAAC    1 (yes)

*Q* Determine whether this sequence shows binding signal lower than 0.08 normalized occupancy (ties excluded): AAACCACG
*A* 0 (no)

*Q* Determine whether this sequence shows binding signal lower than 0.08 normalized occupancy (ties excluded): CCCTCCTC
*A* 1 (yes)

*Q* Determine whether this sequence shows binding signal lower than 0.08 normalized occupancy (ties excluded): CATGCGCG
*A* 0 (no)

*Q* Determine whether this sequence shows binding signal lower than 0.08 normalized occupancy (ties excluded): AGTGCCTC
*A* 1 (yes)

*Q* Determine whether this sequence shows binding signal lower than 0.08 normalized occupancy (ties excluded): ATACCACA
*A* 0 (no)

*Q* Determine whether this sequence shows binding signal lower than 0.08 normalized occupancy (ties excluded): CATGCGCA
*A* 0 (no)

*Q* Determine whether this sequence shows binding signal lower than 0.08 normalized occupancy (ties excluded): CCAGGTAA
*A* 1 (yes)

*Q* Determine whether this sequence shows binding signal lower than 0.08 normalized occupancy (ties excluded): ATACCACG
*A* 0 (no)

*Q* Determine whether this sequence shows binding signal lower than 0.08 normalized occupancy (ties excluded): CAGTAGAA
*A* 1 (yes)

* * *

biological target: MaxL homodimer (Homo sapiens, UniProt P61244 1-160); assay: universal protein-binding microarray (PBM); PBS-based mixture, 10 nM His-tagged protein dimer, 2% milk, 200 ng/uL BSA, 50 ng/uL salmon testes DNA, 0.02% TX-100; detection with Alexa 488 anti-His antibody;; high values mean tight binding; details: protein: recombinant; tags: C-terminal His-tag (pET21a); chain copies: 2; dsDNA, one strand shown;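 further: fluorescence intensity normalized to that of the highest-ranked 8-mer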
The full ranking holds about 33,000 sequences; the median of “normalized occupancy” is about 0.075, and the highest 2% start at about 0.095. Many of the other results were omitted from the sample, so the highest values are more common in it than they were.
readout: binding signal
State the result as a value with its unit after it.

TATGAGGA    0.0851 normalized occupancy
CCCGTAAA    0.0752 normalized occupancy

*Q* Requested read-out: binding signal. Entry: ACATGAGC
*A* 0.0906 normalized occupancy

*Q* Requested read-out: binding signal. Entry: ACATGAGT
*A* 0.09 normalized occupancy

* * *

sequences and their reported binding signal
target: MaxL homodimer (Homo sapiens, UniProt P61244 1-160); test: universal protein-binding microarray (PBM); PBS-based mixture, 10 nM His-tagged protein dimer, 2% milk, 200 ng/uL BSA, 50 ng/uL salmon testes DNA, 0.02% TX-100; detection with Alexa 488 anti-His antibody;; high values mean tight binding; details: protein: recombinant; tags: C-terminal His-tag (pET21a); chain copies: 2; dsDNA, one strand shown;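 further: fluorescence intensity normalized to that of the highest-ranked 8-mer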
The full ranking holds about 33,000 sequences; the median of “normalized occupancy” is about 0.075, and the highest 2% start at about 0.095. The full list was thinned out, with the highest values kept by preference.
A number alone suffices; assume normalized occupancy.

CATGTCTC    0.0933
GCGCACGA    0.093
GAGGAAGA    0.075

*Q* Requested read-out: binding signal. Entry: ACGCACTA
*A* 0.0766

* * *

target: MaxL homodimer (Homo sapiens, UniProt P61244 1-160); assay: universal protein-binding microarray (PBM); PBS-based mixture, 10 nM His-tagged protein dimer, 2% milk, 200 ng/uL BSA, 50 ng/uL salmon testes DNA, 0.02% TX-100; detection with Alexa 488 anti-His antibody;; high values mean tight binding; conditions: protein: recombinant; tags: C-terminal His-tag (pET21a); chain copies: 2; dsDNA, one strand shown;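 further: fluorescence intensity normalized to that of the highest-ranked 8-mer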
In all, about 33,000 sequences were measured (“normalized occupancy”: median about 0.075, highest 2% from about 0.095 on). Only a selection was taken, and the highest values are over-represented in it overall.
sequences and their reported binding signal
A number alone suffices; assume normalized occupancy.

A selection of reference data follows.
GGTCTTTA    0.0763
CTCCTTCC    0.081
GGAATAAA    0.0741
AGCTATAA    0.0785

*Q* Requested read-out: binding signal. Entry: CGCAGTAC
*A* 0.0724

*Q* Requested read-out: binding signal. Entry: ATGTGGAA
*A* 0.0936

*Q* Requested read-out: binding signal. Entry: TCTCGAAA
*A* 0.0729

*Q* Requested read-out: binding signal. Entry: CCTTTATA
*A* 0.0822

*Q* Requested read-out: binding signal. Entry: AGTAGTGG
*A* 0.0787

*Q* Requested read-out: binding signal. Entry: CTGTAATA
*A* 0.0777

*Q* Requested read-out: binding signal. Entry: CATCAAGC
*A* 0.0726

Attribution: paper PMC4242493
